- Test system: Huh-7 cells containing the self-replicating, subgenomic HCV replicon
- TEST DESCRIPTION: HCV replicon assay (luciferase reporter, 72 h)
- Format: cell-based
- TEST SETTINGS: Hepatitis C virus, Huh-7, 72 h, read-out: HCV Replicon Activity (EC50)
pEC50: −log10 of the molar value.
# Lookup of reported pEC50 keyed by entry

1. C[C@H](NP(=O)(Oc1ccc(Cl)cc1)O[C@@H](C)[C@H]1O[C@@H](n2cnc3c(N)ncnc32)[C@H](O)[C@@H]1O)C(=O)OC1CCCCC1 (stereo partly drawn): > 6.00
2. CC(C)OC(=O)[C@H](C)NP(=O)(Oc1cccc2ccccc12)OC(C)[C@H]1O[C@@H](n2ccc(N)nc2=O)[C@@H](C)[C@@H]1O (mixture of isomers): > 4.52
3. C[C@H](NP(=O)(Oc1ccccc1)O[C@@H](C)[C@H]1O[C@@H](n2cnc3c(N)ncnc32)[C@@H]2OC(=O)O[C@@H]21)C(=O)OCC(C)(C)C (stereo partly drawn): > 6.00

Recorded pEC50 of CC[C@H](NP(=O)(Oc1ccccc1)O[C@@H](C)[C@H]1O[C@@H](n2cnc3c(N)ncnc32)[C@H](O)[C@@H]1O)C(=O)OC1CCCCC1 (stereo partly drawn) , please. > 6.00

Now the molecule C[C@H](NP(=O)(Oc1cccc2ccccc12)O[C@@H](C)[C@H]1O[C@@H](n2cnc3c(N)ncnc32)[C@H](O)[C@@H]1O)C(=O)OCC(C)(C)C (stereo partly drawn) > 6.00

How about this molecule: COC(=O)[C@H](C)NP(=O)(Oc1ccccc1)O[C@H](C)[C@H]1O[C@@H](n2ccc(=O)[nH]c2=O)[C@@H](O)[C@@H]1O (stereo partly drawn) [D1] > 3.00

Query CC(C)OC(=O)[C@H](C)NP(=O)(Oc1cccc2ccccc12)O[C@@H](C)[C@H]1O[C@@H](n2cnc3c(N)ncnc32)[C@@H]2OC(=O)O[C@@H]21 (stereo partly drawn) next > 6.00

For C[C@H](OP(=O)(NCC(=O)OC1CCCCC1)Oc1ccccc1)[C@H]1O[C@@H](n2cnc3c(N)ncnc32)[C@H](O)[C@@H]1O (stereo partly drawn) then? > 6.00

Proceed to CC(C)C[C@H](NP(=O)(Oc1ccccc1)O[C@@H](C)[C@H]1O[C@@H](n2cnc3c(N)ncnc32)[C@H](O)[C@@H]1O)C(=O)OC1CCCCC1 (stereo partly drawn) > 6.00

And CCOC(=O)[C@H](C)NP(=O)(Oc1cccc2ccccc12)O[C@@H](C)[C@H]1O[C@@H](n2cnc3c(N)ncnc32)[C@H](O)[C@@H]1O (stereo partly drawn) ? > 6.00

Another molecule to look at: C[C@H](NP(=O)(Oc1cccc2ccccc12)O[C@@H](C)[C@H]1O[C@@H](n2cnc3c(N)ncnc32)[C@H](O)[C@@H]1O)C(=O)OCc1ccccc1 (stereo partly drawn) > 6.00

Repeat for the following molecule: CC(C)OC(=O)[C@H](C)NP(=O)(Oc1ccccc1)O[C@@H](C)[C@H]1O[C@@H](n2ccc(N)nc2=O)[C@H](O)[C@@H]1O (stereo partly drawn) > 4.00

###

- Test system: Huh-7 cells containing the self-replicating, subgenomic HCV replicon
- TEST DESCRIPTION: HCV replicon assay (luciferase reporter, 72 h)
- Assay type: cell-based
- TEST SETTINGS: Hepatitis C virus, Huh-7, 72 h, read-out: HCV Replicon Activity (EC50)
OUTCOME MEASURE: EC50

Known results for compounds:
1) COC(=O)[C@@H](C)NP(=O)(Oc1ccccc1)O[C@@H](C)[C@H]1O[C@@H](n2cnc3c(N)ncnc32)[C@](C)(O)[C@@H]1O (stereo partly drawn) [drawing 355]: 30 to 200 µM
2) CCC(=O)O[C@H]1[C@@H](OC(=O)CC)[C@H](n2cnc3c(N)ncnc32)O[C@@H]1[C@H](C)OP(=O)(N[C@@H](C)C(=O)OC(C)C)Oc1cccc2ccccc12 (stereo partly drawn): < 1 µM

Please examine the following record next.
Recall the recorded EC50 for C[C@H](NP(=O)(Oc1ccccc1)O[C@@H](C)[C@H]1O[C@@H](n2cnc3c(N)ncnc32)[C@@H]2OC(=O)O[C@@H]21)C(=O)OC1CCCCC1 (stereo partly drawn) with Huh-7 cells containing the self-replicating, subgenomic HCV replicon and state it. < 1 µM

###

- Test system: Huh-7 cells containing the self-replicating, subgenomic HCV replicon
- TEST DESCRIPTION: HCV replicon assay (luciferase reporter, 72 h)
- Type: cell-based
- TEST SETTINGS: Hepatitis C virus, Huh-7, 72 h, read-out: HCV Replicon Activity (EC50)
Parameter EC50: see the listing below.

Query: EC50; subject: C[C@H](NP(=O)(Oc1cccc2ncccc12)O[C@@H](C)[C@H]1O[C@@H](n2cnc3c(N)ncnc32)[C@H](O)[C@@H]1O)C(=O)OC1CCCCC1 (stereo in doubt) < 30 µM

Same again, this time with COC(=O)[C@H](C)NP(=O)(Oc1ccccc1)OC(C)[C@H]1O[C@@H](n2ccc(N)nc2=O)[C@@H](F)[C@@H]1O (mixture of isomers) < 100 µM

Same read-out for CC(C)OC(=O)[C@H](C)N[P@](=O)(Oc1cccc2ccccc12)O[C@@H](C)[C@H]1O[C@@H](n2cnc3c(=O)[nH]cnc32)[C@H](O)[C@@H]1O (stereo in doubt) ? < 100 µM

Quick one: COC(=O)C(C)NP(=O)(Oc1ccccc1)OC(C)[C@H]1O[C@@H](n2ccc(=O)[nH]c2=O)C(C)C1O (mixture of isomers) < 30 µM

Please answer likewise for COC(=O)[C@H](C)NP(=O)(Oc1ccccc1)O[C@H](C)[C@H]1O[C@@H](n2cnc3c(N)ncnc32)[C@H](O)[C@@H]1O (stereo partly drawn) < 30 µM

Do the same for CC[C@@H](OP(=O)(N[C@@H](C)C(=O)OC(C)C)Oc1ccccc1)[C@H]1O[C@@H](n2cnc3c(N)ncnc32)[C@H](O)[C@@H]1O (stereo partly drawn) please < 1000 µM

###

- System: Huh-7 cells containing the self-replicating, subgenomic HCV replicon
- TEST DESCRIPTION: HCV replicon assay (luciferase reporter, 72 h)
- Type: cell-based
- TEST SETTINGS: Hepatitis C virus, Huh-7, 72 h, read-out: HCV Replicon Activity (EC50)
Each entry below carries its recorded EC50.

1) C[C@H](NP(=O)(Oc1ccc(F)cc1)O[C@@H](C)[C@H]1O[C@@H](n2cnc3c(N)ncnc32)[C@H](O)[C@@H]1O)C(=O)OC1CCCCC1 (stereo in doubt) [A31]: < 1000 nM
2) C[C@H](N[P@@](=O)(Oc1ccccc1)O[C@@H](C)[C@H]1O[C@@H](n2cnc3c(N)ncnc32)[C@H](O)[C@@H]1O)C(=O)OC1CCCCC1 [A10a]: < 1000 nM
3) C[C@H](NP(=O)(Oc1ccccc1)O[C@@H](C)[C@H]1O[C@@H](n2cnc3c(N)ncnc32)[C@H](O)[C@@H]1O)C(=O)OC1CCCCC1 (stereo partly drawn) [A10]: < 1000 nM
4) CC(C)OC(=O)[C@H](C)NP(=O)(Oc1cccc2ccccc12)O[C@@H](C)[C@H]1O[C@@H](n2cnc3c(N)ncnc32)[C@H](O)[C@@H]1O (stereo partly drawn) [A20]: < 1000 nM
5) COC(=O)[C@H](C)N[P@](=O)(Oc1ccccc1)O[C@@H](C)[C@H]1O[C@@H](n2cnc3c(N)ncnc32)[C@H](O)[C@@H]1O: < 5000 nM

Now for a further molecule.
Could you tell me which EC50 is on file for CC(C)[C@H](NP(=O)(Oc1ccccc1)O[C@@H](C)[C@H]1O[C@@H](n2cnc3c(N)ncnc32)[C@H](O)[C@@H]1O)C(=O)OC1CCCCC1 (stereo partly drawn) [A39] ? < 1000 nM

###

- Test system: Huh-7 cells containing the self-replicating, subgenomic HCV replicon
- TEST DESCRIPTION: HCV replicon assay (luciferase reporter, 72 h)
- Assay type: cell-based
- TEST SETTINGS: Hepatitis C virus, Huh-7, 72 h, read-out: HCV Replicon Activity (EC50)
// reported EC50 per item

Previously resolved entries follow.
1. CC(NP(=O)(Oc1ccccc1Cl)OC(C)C1OC(n2cnc3c(N)ncnc32)[C@H](O)[C@@H]1O)C(=O)OC1CCCCC1 (some centres unmarked) [A28]: < 1 µM
2. COc1ccc(OP(=O)(N[C@@H](C)C(=O)OC2CCCCC2)O[C@@H](C)[C@H]2O[C@@H](n3cnc4c(N)ncnc43)[C@H](O)[C@@H]2O)cc1 (some centres unmarked) [A33]: < 1 µM
3. COC(=O)Nc1ncnc2c1ncn2[C@@H]1O[C@H]([C@H](C)OP(=O)(N[C@@H](C)C(=O)OC2CCCCC2)Oc2cccc3ccccc23)[C@@H](O)[C@H]1O (some centres unmarked) [A6]: < 30 µM
4. CCOC(=O)[C@H](C)NP(=O)(Oc1ccccc1)O[C@@H](C)[C@H]1O[C@@H](n2cnc3c(N)ncnc32)[C@H](O)[C@@H]1O (some centres unmarked): < 30 µM

Now for another entry.
Give its EC50 value. Item: CC(C)OC(=O)[C@H](C)NP(=O)(Oc1cccc2ccccc12)O[C@@H](C)[C@H]1O[C@@H](n2ccc(N)nc2=O)[C@H](O)[C@@H]1O (some centres unmarked) [C2] < 100 µM

Sourced from patent US20120070411A1
